Reference source: patent US7342026B2

METHOD: Cytotoxicity with respect to host CEM4fx cells (MTT bioconversion assay)
Type: cell-based
CONDITION_SET: human, CEM4fx cells (host cells)
OUTCOME_MEASURE: pIC50
Keep in mind that pIC50 stands for -log10 of concentration in molar terms.

Enquiry: So what does the record say about pIC50 for O=CC=Cc1ccc2ccccc2n1 [Quinoline 9, 3-(2-quinolyl)propenal] ?
Return: 5.70

###

Test system: amastigotes of Leishmania amazonensis
METHOD: Amastigotes of Leishmania amazonensis in infected macrophages (leishmanicidal activity)
Type: cell-based
CONDITION_SET: 100% inhibitory concentration; intracellular amastigotes in BALB/c macrophages, 30 hours after addition
OUTCOME_MEASURE: L. amazonensis IC100 (µg/mL)
// units = µg/mL; emit number, no label

Example results:
COC(=O)/C=C/C=C/c1ccc2ccccc2n1	12.5
COC(=O)/C=C/c1ccc2ccccc2n1 [Quinoline 23, methyl E-3-(2-quinolyl)-2-propenoate]	12.5
Br/C=C/c1ccc2ccccc2n1	0.7812
FC(Br)=Cc1ccc2ccccc2n1	25
c1ccc2nc(CCc3ccc4c(c3)OCO4)ccc2c1	50
CCCCC/C=C/c1ccc2ccccc2n1	12.5
OC/C=C/c1ccc2ccccc2n1	25

Then there is this compound:
Enquiry: So what does the record say about L. amazonensis IC100 for "C=Cc1ccc2ccccc2n1" ?
Return: 3.12

###

Tested on: macrophages
METHOD: Cytotoxicity on macrophages
Format: cell-based, BALB/c mice
CONDITION_SET: macrophages from BALB/c mice
Lab note: anything with Cytotoxicity on macrophages below 10 µg/mL is marked fulfilled; values at 10 µg/mL or higher are marked not fulfilled.

CCCCCc1ccc2ccccc2n1	not fulfilled
c1ccc2nc(CCc3ccc4c(c3)OCO4)ccc2c1	not fulfilled
BrC#Cc1ccc2ccccc2n1	not fulfilled
CC(=O)Cc1ccc2ccccc2n1	not fulfilled

Enquiry: Is the reported Cytotoxicity on macrophages for "C=Cc1ccc2ccccc2n1" strictly below 10 µg/mL?
Return: fulfilled

Enquiry: Is the reported Cytotoxicity on macrophages for "CCCCCCCCC#Cc1ccc2ccccc2n1" strictly below 10 µg/mL?
Return: not fulfilled

Enquiry: Is the reported Cytotoxicity on macrophages for "OC/C=C/c1ccc2ccccc2n1" strictly below 10 µg/mL?
Return: not fulfilled

Enquiry: Is the reported Cytotoxicity on macrophages for C[Si](C)(C)C#Cc1ccc2ccccc2n1 [Example 1, 2-(2-quinolyl)trimethylsilylacetylene] strictly below 10 µg/mL?
Return: fulfilled

Enquiry: Is the reported Cytotoxicity on macrophages for C[Si](C)(C)C#Cc1ccc2ccccc2n1 [Quinoline 26] strictly below 10 µg/mL?
Return: fulfilled

Enquiry: Is the reported Cytotoxicity on macrophages for "Br/C=C/c1ccc2ccccc2n1" strictly below 10 µg/mL?
Return: fulfilled

###

Let's look at some compounds and their measured Cytotoxicity on macrophages.
Test system: macrophages
METHOD: Cytotoxicity on macrophages
Type: cell-based, BALB/c mice
CONDITION_SET: macrophages from BALB/c mice
// units = µg/mL; emit number, no label

Example results:
FC(Br)=Cc1ccc2ccccc2n1	25
CC/C=C/c1ccc2ccccc2n1	25
C/C=C/c1ccc2cccc(O)c2n1	50
COC(=O)/C=C/C=C/c1ccc2ccccc2n1	25
O=C(O)/C=C/c1ccc2ccccc2n1	12.5

Then there is this compound:
Enquiry: So what does the record say about Cytotoxicity on macrophages for "CCCCC/C=C/c1ccc2ccccc2n1" ?
Return: 25

###

Test system: amastigotes of Leishmania amazonensis
METHOD: Amastigotes of Leishmania amazonensis in infected macrophages (leishmanicidal activity)
Assay type: cell-based
CONDITION_SET: 100% inhibitory concentration; intracellular amastigotes in BALB/c macrophages, 30 hours after addition
OUTCOME_MEASURE: L. amazonensis IC100 (µg/mL)
// units = µg/mL; emit number, no label

Example results:
O=C(O)/C=C/c1ccc2ccccc2n1	12.5
O=CC=Cc1ccc2ccccc2n1	0.781
CC/C=C/c1ccc2ccccc2n1	6.25
C/C=C/c1ccc2cccc(O)c2n1	50
COC(=O)/C=C/c1ccc2cc(C)ccc2n1	50

Enquiry: So what does the record say about L. amazonensis IC100 for "C[Si](C)(C)C#Cc1ccc2ccccc2n1" ?
Return: 0.7812

Enquiry: So what does the record say about L. amazonensis IC100 for "BrC#Cc1ccc2ccccc2n1" ?
Return: 12.5

Enquiry: So what does the record say about L. amazonensis IC100 for "CCCCCCCCC#Cc1ccc2ccccc2n1" ?
Return: 12.5

Enquiry: So what does the record say about L. amazonensis IC100 for "CC(=O)Cc1ccc2ccccc2n1" ?
Return: 25
